Test system: ATP;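 note: ATP exposure 15 min at 22 °C before imaging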
Assay: switch fluorescence ratio, 500 uM ATP over buffer (Cy3 cluster intensity, sum of 5 cycles each) (fold (ratio)); higher = stronger signal-on switching upon ATP binding; sequences stand for … in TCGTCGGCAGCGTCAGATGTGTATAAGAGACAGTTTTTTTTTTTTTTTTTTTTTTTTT…TC
Conditions: aptamer strand: ATP DNA aptamer (quencher-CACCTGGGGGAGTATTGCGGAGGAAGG + anchor), 100 nM annealed; ATP concentration: 500 uM
Parameter: switch fluorescence ratio. Scope: all listed entries.
Reply with the value as a number alone.

Use the examples below as a reference point.
>>> obs_value("AATGAAATAG")
0.998
>>> obs_value("TGTGTCTAGT")
0.974
>>> obs_value("TTAGTGTGTG")
0.994

Return the recorded switch fluorescence ratio value; entry: TCAAATGGCG 0.923

Return the recorded switch fluorescence ratio value; entry: TTTGTGATG 0.959

Return the recorded switch fluorescence ratio value; entry: GGGGAATGCA 1.01

Return the recorded switch fluorescence ratio value; entry: ACTCGTTGTC 1.02

Return the recorded switch fluorescence ratio value; entry: TTCGGCTTTT 0.983

Return the recorded switch fluorescence ratio value; entry: GAGGGTACGG 1.04

Return the recorded switch fluorescence ratio value; entry: TGGGTGGGGA 1

Return the recorded switch fluorescence ratio value; entry: GGAGCGAGGG 1.11

Return the recorded switch fluorescence ratio value; entry: TGTAAATACA 1.15

Return the recorded switch fluorescence ratio value; entry: TATAACACTT 1.05

Return the recorded switch fluorescence ratio value; entry: TTTACCACCT 1.27

Return the recorded switch fluorescence ratio value; entry: GCCTTTTCGA 0.983

Return the recorded switch fluorescence ratio value; entry: GGTTGCCTGC 0.96

Return the recorded switch fluorescence ratio value; entry: TGCGATGGTC 1.18

Return the recorded switch fluorescence ratio value; entry: GGGAGTCTTG 0.987

Return the recorded switch fluorescence ratio value; entry: CCAGGGGGTT 1.51
